Target Or System: human ΔF508-CFTR (Homo sapiens, UniProt P13569, DEL508-508)
Sequence (P13569 with tags, fused parts or gaps DEL508-508): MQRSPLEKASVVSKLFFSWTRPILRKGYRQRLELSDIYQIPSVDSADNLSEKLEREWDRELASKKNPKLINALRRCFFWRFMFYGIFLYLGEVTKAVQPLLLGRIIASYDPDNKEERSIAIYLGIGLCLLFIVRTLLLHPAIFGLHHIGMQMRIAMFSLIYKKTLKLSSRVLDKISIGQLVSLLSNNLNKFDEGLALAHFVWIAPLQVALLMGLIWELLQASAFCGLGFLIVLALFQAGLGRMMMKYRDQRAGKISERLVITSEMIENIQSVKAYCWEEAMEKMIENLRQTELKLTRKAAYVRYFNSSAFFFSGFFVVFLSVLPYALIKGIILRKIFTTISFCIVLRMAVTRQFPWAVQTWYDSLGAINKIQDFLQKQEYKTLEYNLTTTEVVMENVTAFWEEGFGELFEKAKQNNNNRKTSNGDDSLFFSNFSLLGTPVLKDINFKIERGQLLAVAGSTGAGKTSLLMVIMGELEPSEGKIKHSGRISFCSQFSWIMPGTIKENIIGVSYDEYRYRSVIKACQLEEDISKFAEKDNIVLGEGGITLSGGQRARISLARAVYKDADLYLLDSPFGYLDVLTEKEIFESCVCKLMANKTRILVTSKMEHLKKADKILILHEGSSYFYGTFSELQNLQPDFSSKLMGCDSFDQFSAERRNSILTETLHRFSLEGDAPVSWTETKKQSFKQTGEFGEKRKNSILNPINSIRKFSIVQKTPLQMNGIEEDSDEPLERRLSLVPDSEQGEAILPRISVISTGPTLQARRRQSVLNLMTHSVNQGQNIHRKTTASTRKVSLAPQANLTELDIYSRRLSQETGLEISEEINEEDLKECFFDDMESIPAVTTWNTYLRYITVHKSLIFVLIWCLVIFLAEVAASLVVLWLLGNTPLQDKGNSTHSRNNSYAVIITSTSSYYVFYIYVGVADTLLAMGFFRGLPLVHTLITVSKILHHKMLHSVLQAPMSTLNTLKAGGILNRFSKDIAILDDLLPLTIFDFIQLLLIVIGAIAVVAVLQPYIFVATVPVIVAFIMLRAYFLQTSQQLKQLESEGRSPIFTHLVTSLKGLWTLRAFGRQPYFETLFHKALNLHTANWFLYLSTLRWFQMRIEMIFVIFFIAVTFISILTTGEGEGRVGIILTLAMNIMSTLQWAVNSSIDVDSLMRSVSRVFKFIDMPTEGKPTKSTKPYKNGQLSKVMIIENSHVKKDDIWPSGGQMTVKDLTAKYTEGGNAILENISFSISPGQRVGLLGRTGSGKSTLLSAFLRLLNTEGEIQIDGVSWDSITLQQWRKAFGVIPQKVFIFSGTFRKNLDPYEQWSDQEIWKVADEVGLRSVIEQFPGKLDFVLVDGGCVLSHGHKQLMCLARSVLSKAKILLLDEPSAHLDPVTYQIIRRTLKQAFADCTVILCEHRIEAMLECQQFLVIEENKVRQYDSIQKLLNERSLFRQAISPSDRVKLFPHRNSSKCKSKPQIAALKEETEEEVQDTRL
Test Description: CFTR-YFP High Throughput Assay (YFP halide flux in FRT cells)
Condition Notes: FRT cells expressing human ΔF508-CFTR and YFP; forskolin stimulated
pEC50: −log10 of the molar value.
Assay Endpoint: pEC50

query: Entry under review: CCN(C(=O)c1nn(-c2ccccc2)c(=O)c2c1c1ccccc1n2C)c1ccncn1 [Example 102] . Reported pEC50?
result: > 5.00

query: Entry under review: CCN(C(=O)c1nn(-c2ccc(C)cc2)c(=O)c2[nH]c3ccccc3c12)c1ccccc1 [Example 147] . Reported pEC50?
result: > 5.00

query: Entry under review: CCN(C(=O)c1nn(-c2ncccn2)c(=O)c2c1c1ccccc1n2C)c1ccccc1 [Example 122] . Reported pEC50?
result: 4.70 to 5.00

query: Entry under review: CCN(C(=O)c1nn(-c2ccc(C)cc2)c(=O)c2c1c1ccccc1n2CC#N)c1ccccc1 [Example 150] . Reported pEC50?
result: < 4.70

query: Entry under review: CCN(C(=O)c1nn(-c2cnc3ccccc3c2)c(=O)c2c1c1ccccc1n2C)c1ccccc1 [Example 128] . Reported pEC50?
result: > 5.00

query: Entry under review: CCN(C(=O)Cn1nc(Cc2cccnc2)c2cc(Cl)ccc2c1=O)c1ccc2c(c1)OC(F)(F)O2 [Example 53] . Reported pEC50?
result: > 5.00

query: Entry under review: CCN(C(=O)c1nn(-c2ccc(C)cc2)c(=O)c2c1c1ccccc1n2CC(=O)O)c1ccccc1 [Example 151] . Reported pEC50?
result: < 4.70

query: Entry under review: CCc1ccc(N(CC)C(=O)Cn2nc(Cc3cccnc3)c3cc(C(C)(C)C)ccc3c2=O)cc1 [Example 34] . Reported pEC50?
result: > 5.00

query: Entry under review: COc1ccc2c(-c3ccc(S(N)(=O)=O)cc3)nn(CC(=O)N(c3ccc4c(c3)OC(F)(F)O4)C3CC3)c(=O)c2c1 [Example 71] . Reported pEC50?
result: > 5.00

query: Entry under review: CCc1ccc(N(CC)C(=O)Cn2nc(-c3cccc4cnccc34)c3ccccc3c2=O)cc1 [Example 6] . Reported pEC50?
result: > 5.00

query: Entry under review: CCN(C(=O)Cn1nc(-c2cccnc2)c2ccccc2c1=O)c1ccc2c(c1)OC(F)(F)O2 [Example 24] . Reported pEC50?
result: < 4.70

query: Entry under review: CCN(C(=O)c1nn(-c2ccc(C)cc2)c(=O)c2c1c1ccccc1n2C)c1ccc2c(c1)OC(F)(F)O2 [Example 133] . Reported pEC50?
result: > 5.00

query: Entry under review: CCN(C(=O)Cn1ncc2c(c1=O)c1ccccc1n2CCC(=O)OC)c1ccc2c(c1)OC(F)(F)O2 [Example 88] . Reported pEC50?
result: > 5.00

query: Entry under review: CCc1ccc(N(CC)C(=O)Cn2nc(C(=O)Nc3cc(Cl)ccc3C(=O)OC)c3ccccc3c2=O)cc1 [Example 84] . Reported pEC50?
result: > 5.00

query: Entry under review: CCc1ccc(N(CC)C(=O)Cn2nc(-c3ccccc3)c3ccccc3c2=O)cc1 [Example 1] . Reported pEC50?
result: 4.70 to 5.00

query: Entry under review: Cc1ccc(-n2nc(C(=O)N(c3ccccc3)C(C)C)c3c4ccccc4n(C)c3c2=O)cc1 [Example 103] . Reported pEC50?
result: > 5.00

query: Entry under review: CCN(CC)C(=O)c1nn(CC(=O)N(CC)c2ccc3c(c2)OC(F)(F)O3)c(=O)c2c1c1ccccc1n2C [Example 145] . Reported pEC50?
result: > 5.00

query: Entry under review: CCN(C(=O)c1nn(-c2ccc(C)cc2)c(=O)c2c1c1ccccc1n2Cc1ccccn1)c1ccccc1 [Example 153] . Reported pEC50?
result: < 4.70

query: Entry under review: CCN(C(=O)c1nn(C(C)C)c(=O)c2c1c1ccccc1n2C)c1cccc(Cl)c1 [Example 140] . Reported pEC50?
result: > 5.00

query: Entry under review: CCN(C(=O)Cn1nc(Cc2cccnc2)c2ccc(Cl)cc2c1=O)c1ccc2c(c1)OC(F)(F)O2 [Example 54] . Reported pEC50?
result: > 5.00

query: Entry under review: CCN(C(=O)Cn1nc(Cc2cccnc2)c2cccc(OC)c2c1=O)c1ccc2c(c1)OC(F)(F)O2 [Example 55] . Reported pEC50?
result: > 5.00

query: Entry under review: CCc1ccc(N(CC)C(=O)Cn2nc(Cc3cccnc3)c3cc(Cl)ccc3c2=O)cc1 [Example 40] . Reported pEC50?
result: > 5.00

query: Entry under review: CCc1ccc(N(CC)C(=O)Cn2nc(-c3ccncc3)c3ccccc3c2=O)cc1 [Example 4] . Reported pEC50?
result: < 4.70

query: Entry under review: CCc1ccc(N(CC)C(=O)Cn2nc(Cc3cccnc3)c3c(C)cccc3c2=O)cc1 [Example 31] . Reported pEC50?
result: > 5.00

query: Entry under review: CCc1ccc(N(CC)C(=O)Cn2nc(Cc3cccnc3)c3ccc(C(C)(C)C)cc3c2=O)cc1 [Example 33] . Reported pEC50?
result: > 5.00

query: Entry under review: CCN(C(=O)Cn1nc(Cc2cccnc2)c2c3ccccc3n(C)c2c1=O)c1ccc2c(c1)OC(F)(F)O2 [Example 157] . Reported pEC50?
result: < 4.70

query: Entry under review: CCN(C(=O)c1nn(-c2nc3ccccc3n2C)c(=O)c2c1c1ccccc1n2C)c1ccccc1 [Example 124] . Reported pEC50?
result: < 4.70

query: Entry under review: CCN(C(=O)Cn1nc(C(=O)Nc2ccccc2C#N)c2ccccc2c1=O)c1ccc2c(c1)OC(F)(F)O2 [Example 78] . Reported pEC50?
result: 4.70 to 5.00

query: Entry under review: CCN(C(=O)Cn1ncc2c(c1=O)c1ccccc1n2CCC#N)c1ccc2c(c1)OC(F)(F)O2 [Example 92] . Reported pEC50?
result: > 5.00

query: Entry under review: COc1ccc2c(-c3cccc(C#N)c3)nn(CC(=O)N(c3ccc4c(c3)OC(F)(F)O4)C3CC3)c(=O)c2c1 [Example 72] . Reported pEC50?
result: > 5.00

query: Entry under review: CCc1ccc(N(CC)C(=O)Cn2nc(Cc3cccnc3)c3cc(OC)c(OC)cc3c2=O)cc1 [Example 32] . Reported pEC50?
result: > 5.00

query: Entry under review: CCN(C(=O)c1nn(-c2ccccc2)c(=O)c2c1c1ccccc1n2C)c1ccncc1 [Example 109] . Reported pEC50?
result: > 5.00
